# experimental.setup: in n-propanol, 323.15 K
measurement.type: solubility (mole fraction)
Please give only the number in your answer, with no unit.

Entry ON(Cc1ccccc1)Cc1ccccc1 has what solubility (mole fraction)?
0.015

---

# experimental.setup: in toluene, 289.15 K
measurement.type: solubility (mole fraction)
Reply: number alone, nothing else.

Give the measured solubility (mole fraction) of ON(Cc1ccccc1)Cc1ccccc1 .
0.00959

---

# experimental.setup: in ethanol, 273.15 K
measurement.type: solubility (mole fraction)

Can you share its solubility (mole fraction)? I mean this compound: ON(Cc1ccccc1)Cc1ccccc1
0.00127

---

# experimental.setup: in n-butanol, 289.05 K
measurement.type: solubility (mole fraction)
Give your answer as a number; write no unit.

What does the record list as solubility (mole fraction) for ON(Cc1ccccc1)Cc1ccccc1 ?
0.00338

---

# experimental.setup: in n-propanol, 297.65 K
measurement.type: solubility (mole fraction)
# print the numeric value only

Item under review: ON(Cc1ccccc1)Cc1ccccc1 . Reported solubility (mole fraction)?
0.00476

---

# experimental.setup: in n-butanol, 273.15 K
measurement.type: solubility (mole fraction)
Form field (numeric): enter value without unit.

// lookup solubility (mole fraction) for ON(Cc1ccccc1)Cc1ccccc1
0.00141

---

# experimental.setup: in methanol, 308.05 K
measurement.type: solubility (mole fraction)

Could you share which solubility (mole fraction) value was measured for ON(Cc1ccccc1)Cc1ccccc1 ?
0.00648

---

# experimental.setup: in methanol, 289.05 K
measurement.type: solubility (mole fraction)
Please reply with the value in numeric form only.

Need solubility (mole fraction) of ON(Cc1ccccc1)Cc1ccccc1 , thanks.
0.00276

---

# experimental.setup: in n-octanol, 309.05 K
measurement.type: solubility (mole fraction)

Name the recorded solubility (mole fraction) for ON(Cc1ccccc1)Cc1ccccc1 .
0.011

---

# experimental.setup: in isopropanol, 318.95 K
measurement.type: solubility (mole fraction)
Just the number, please, no unit after it.

Query (compound): ON(Cc1ccccc1)Cc1ccccc1 ; field requested: solubility (mole fraction)
0.00891

---

# experimental.setup: in 1,2-dichlorobenzene, 293.25 K
measurement.type: solubility (mole fraction)
Answer with a bare number; do not write a unit.

Requested read-out: solubility (mole fraction). Entry: ON(Cc1ccccc1)Cc1ccccc1
0.0106

---

# experimental.setup: in isopropanol, 313.25 K
measurement.type: solubility (mole fraction)
Just the number, please, no unit after it.

For the compound ON(Cc1ccccc1)Cc1ccccc1 , what solubility (mole fraction) is on record?
0.00677

---

# experimental.setup: in ethyl acetate, 302.85 K
measurement.type: solubility (mole fraction)
# print the numeric value only

Bench note: what solubility (mole fraction) did ON(Cc1ccccc1)Cc1ccccc1 show?
0.0317

---

# experimental.setup: in acetone, 308.05 K
measurement.type: solubility (mole fraction)
Respond with the number and no other words.

Form field: reported solubility (mole fraction) of ON(Cc1ccccc1)Cc1ccccc1
0.035

---

# experimental.setup: in n-propanol, 313.15 K
measurement.type: solubility (mole fraction)
Returns: the value as a bare number; no unit string appended.

Requested read-out: solubility (mole fraction). Entry: ON(Cc1ccccc1)Cc1ccccc1
0.00991

---

# experimental.setup: in methanol, 273.15 K
measurement.type: solubility (mole fraction)
The answer should be a number; do not append a unit.

Fill blank: measured solubility (mole fraction) of the molecule ON(Cc1ccccc1)Cc1ccccc1 is ____.
0.00126
